- assayed target: DNA gyrase (Escherichia coli) (UniProt P0AES6+P0AES4)
- method notes: In vitro antibacterial activity against gram-negative organism Klebsiella pneumoniae ATCC 8045
- Type: functional
experimental readout: MIC (µg/mL)

Example cases with answers are listed next.
Cc1c(N2C[C@@H](C)N[C@@H](C)C2)c(F)cn2c(=O)c(C(=O)O)cc(C3CC3)c12 ... 0.02
Cc1c(N2CC[C@@H]([C@H](C)N)C2)c(F)cn2c(=O)c(C(=O)O)cc(C3CC3)c12 ... 0.005
Cc1c(N2CC[C@@H]3CNC[C@@H]32)c(F)cn2c(=O)c(C(=O)O)cc(C3CC3)c12 ... 0.02
Cc1c(N(C)CCN)c(F)cn2c(=O)c(C(=O)O)cc(C3CC3)c12 ... 0.2
Cc1c(N2C[C@@H]3CCN[C@@H]3C2)c(F)cn2c(=O)c(C(=O)O)cc(C3CC3)c12 (stereo in doubt; 45o) ... 0.01
Cc1c(N2C[C@@H](N)C[C@@H]2C)c(F)cn2c(=O)c(C(=O)O)cc(C3CC3)c12 ... 0.01

1 = Cc1c(N2C[C@H]3CCN[C@H]3C2)c(F)cn2c(=O)c(C(=O)O)cc(C3CC3)c12 (single isomer, unassigned)
2 = Cc1c(N2CCC(c3ccccn3)C2)c(F)cn2c(=O)c(C(=O)O)cc(C3CC3)c12 (stereo not drawn)
// pick min by MIC: 1 , 2 I would appreciate it if you answered with the label of your choice.
1

Origin of values: ChEMBL document CHEMBL1129258
